meta.source: paper PMC10205807

Assay: PK study in mice (intravenous and oral)
Assay type: in vivo
Conditions: female, BALB/cAnNCrj-nu/nu, mouse, plasma, po, 10 mg/kg, oral 10 mg/kg
measured_metric: half-life (h)
// note: answer is a bare numeric in h

Challenge: Give its half-life value. Item: COc1cc2nccc(Oc3ccc(NC(=O)NC4CC4)c(Cl)c3)c2cc1C(N)=O [lenvatinib, Lenvatinib]
Response given: 1.74

---

Experiment: PK study in monkeys (intravenous and oral)
Type: in vivo, cynomolgus monkeys
Details: male, cynomolgus, cynomolgus monkey, plasma, oral 3 mg/kg vs intravenous 3 mg/kg, read-out: F (oral bioavailability)
measured_metric: bioavailability (%)
// note: answer is a bare numeric in %

Challenge: Give its bioavailability value. Item: COc1cc2nccc(Oc3ccc(NC(=O)NC4CC4)c(Cl)c3)c2cc1C(N)=O [lenvatinib, Lenvatinib]
Response given: 78.4
